Cited source: patent US20160257732A1

Biological target: HA of A/Puerto Rico/8/34 (H1N1) (influenza A virus, UniProt P03452 18-565)
Sequence (P03452 18-565 limits assumed): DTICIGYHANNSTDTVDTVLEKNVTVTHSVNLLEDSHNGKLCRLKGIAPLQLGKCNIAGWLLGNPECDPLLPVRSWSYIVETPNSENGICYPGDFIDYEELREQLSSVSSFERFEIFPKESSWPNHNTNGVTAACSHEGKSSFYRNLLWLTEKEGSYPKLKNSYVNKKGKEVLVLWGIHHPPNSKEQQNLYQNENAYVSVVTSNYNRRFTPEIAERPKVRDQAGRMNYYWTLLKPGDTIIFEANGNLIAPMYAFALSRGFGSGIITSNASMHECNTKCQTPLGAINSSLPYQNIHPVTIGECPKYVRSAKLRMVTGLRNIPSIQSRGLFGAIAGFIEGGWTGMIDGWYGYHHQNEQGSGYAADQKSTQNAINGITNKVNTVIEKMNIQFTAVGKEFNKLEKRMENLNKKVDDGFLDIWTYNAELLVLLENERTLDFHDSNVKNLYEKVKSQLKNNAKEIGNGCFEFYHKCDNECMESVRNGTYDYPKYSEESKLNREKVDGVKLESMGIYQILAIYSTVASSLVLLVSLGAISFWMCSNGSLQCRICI
Assay: cell-based or functional assay
With a cut-off of 1 µg/mL, any Neutralization IC50, H1-PR34 strictly below it is called Condition met; any Neutralization IC50, H1-PR34 meeting it or above is called Condition not met.

{"columns": ["binder", "classification"],
 "data": [
  ["Antibody 14 (antibody, V domains shown) VH: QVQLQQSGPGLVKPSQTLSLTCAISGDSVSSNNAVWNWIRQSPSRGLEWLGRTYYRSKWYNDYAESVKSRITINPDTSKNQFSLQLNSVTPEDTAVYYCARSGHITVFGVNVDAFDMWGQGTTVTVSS VL: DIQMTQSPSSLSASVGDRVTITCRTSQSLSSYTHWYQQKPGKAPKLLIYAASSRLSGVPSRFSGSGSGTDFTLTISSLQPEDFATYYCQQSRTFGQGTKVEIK", "Condition not met"],
  ["Antibody 15 (antibody, V domains shown) VH: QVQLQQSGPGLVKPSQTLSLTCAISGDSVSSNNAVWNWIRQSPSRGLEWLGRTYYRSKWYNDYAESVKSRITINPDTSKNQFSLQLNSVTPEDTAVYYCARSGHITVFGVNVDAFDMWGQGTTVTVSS VL: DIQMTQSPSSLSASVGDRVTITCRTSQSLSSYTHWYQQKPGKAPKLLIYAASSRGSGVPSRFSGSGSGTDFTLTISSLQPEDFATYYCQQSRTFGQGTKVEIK", "Condition not met"],
  ["Antibody 12 (antibody, V domains shown) VH: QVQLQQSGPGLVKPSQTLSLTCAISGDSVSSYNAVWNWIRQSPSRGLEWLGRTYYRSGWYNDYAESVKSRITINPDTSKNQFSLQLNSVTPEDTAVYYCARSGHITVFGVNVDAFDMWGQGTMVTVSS VL: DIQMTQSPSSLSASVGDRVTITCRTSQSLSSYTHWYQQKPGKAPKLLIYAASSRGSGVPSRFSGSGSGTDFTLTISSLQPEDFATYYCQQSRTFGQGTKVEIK", "Condition not met"],
  ["Antibody 3 (antibody, V domains shown) VH: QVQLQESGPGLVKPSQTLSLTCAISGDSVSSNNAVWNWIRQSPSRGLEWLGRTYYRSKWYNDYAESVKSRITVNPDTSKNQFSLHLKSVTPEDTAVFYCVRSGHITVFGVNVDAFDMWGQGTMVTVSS VL: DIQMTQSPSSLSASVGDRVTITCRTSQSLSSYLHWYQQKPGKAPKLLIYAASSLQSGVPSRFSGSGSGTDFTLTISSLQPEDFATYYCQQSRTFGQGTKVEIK", "Condition not met"],
  ["Antibody 13 (antibody, V domains shown) VH: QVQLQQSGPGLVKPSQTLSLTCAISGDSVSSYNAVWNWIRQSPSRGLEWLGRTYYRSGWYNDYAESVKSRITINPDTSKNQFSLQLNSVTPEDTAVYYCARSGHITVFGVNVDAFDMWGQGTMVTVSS VL: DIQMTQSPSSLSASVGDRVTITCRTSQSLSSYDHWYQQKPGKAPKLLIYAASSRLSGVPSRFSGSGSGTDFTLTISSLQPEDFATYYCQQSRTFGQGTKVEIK", "Condition not met"],
  ["Antibody 11 (antibody, V domains shown) VH: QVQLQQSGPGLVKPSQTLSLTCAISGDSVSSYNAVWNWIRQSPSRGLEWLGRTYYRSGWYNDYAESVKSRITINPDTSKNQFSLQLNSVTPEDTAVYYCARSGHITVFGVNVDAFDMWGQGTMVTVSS VL: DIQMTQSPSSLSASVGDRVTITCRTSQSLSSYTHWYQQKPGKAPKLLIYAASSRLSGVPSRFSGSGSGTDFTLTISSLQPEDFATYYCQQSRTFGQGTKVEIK", "Condition met"]
]}
